- system.tested: Taq Δ271 F667Y (polymerase A) (Thermus aquaticus, UniProt P19821, F272M/F667Y)
- Construct: made in house; host or cells: E. coli
- Sequence (P19821 272-832 F272M/F667Y): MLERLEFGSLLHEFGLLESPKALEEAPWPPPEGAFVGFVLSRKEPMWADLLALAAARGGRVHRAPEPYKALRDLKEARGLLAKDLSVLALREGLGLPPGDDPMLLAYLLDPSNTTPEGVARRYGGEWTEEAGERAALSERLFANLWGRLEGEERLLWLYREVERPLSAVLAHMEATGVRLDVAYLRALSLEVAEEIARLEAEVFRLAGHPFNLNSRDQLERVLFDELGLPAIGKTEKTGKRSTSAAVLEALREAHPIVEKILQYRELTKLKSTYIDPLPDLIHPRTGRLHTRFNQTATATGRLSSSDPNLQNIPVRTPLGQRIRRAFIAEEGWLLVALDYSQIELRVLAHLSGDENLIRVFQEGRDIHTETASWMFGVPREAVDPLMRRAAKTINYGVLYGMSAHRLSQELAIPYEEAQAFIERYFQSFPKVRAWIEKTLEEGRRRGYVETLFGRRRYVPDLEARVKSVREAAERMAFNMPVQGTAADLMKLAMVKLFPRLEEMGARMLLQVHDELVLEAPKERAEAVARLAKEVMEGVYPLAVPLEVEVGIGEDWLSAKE
- experiment: DNA polymerase activity assay with detergent or additive, Taq Δ271 F667Y purified without detergent
- Assay type: biochemical
- assay.conditions: additive final concentration 0.1% (w/v)
value.type: Taq Δ271 F667Y activity relative to 0.5% each NP-40 and Tween 20

stdin: Give its Taq Δ271 F667Y activity relative to 0.5% each NP-40 and Tween 20 value. Item: "C[C@H](CCC(=O)NCCC[N+](C)(C)CCCS(=O)(=O)[O-])[C@H]1CC[C@H]2[C@@H]3[C@H](O)C[C@@H]4C[C@H](O)CC[C@]4(C)[C@H]3C[C@H](O)[C@]12C"
stdout: + (Activity 60-70%)

stdin: Consider the compound "CC1=NCC[C@@H](C(=O)O)N1" and give its measured Taq Δ271 F667Y activity relative to 0.5% each NP-40 and Tween 20.
stdout: − − − (Activity < 20%)

stdin: Reported Taq Δ271 F667Y activity relative to 0.5% each NP-40 and Tween 20 for C[C@H](CCC(=O)NCCC[N+](C)(C)CC(O)CS(=O)(=O)[O-])[C@H]1CC[C@H]2[C@@H]3[C@H](O)C[C@@H]4C[C@H](O)CC[C@]4(C)[C@H]3C[C@H](O)[C@]12C (some centres unmarked) : what is it?
stdout: + (Activity 60-70%)

stdin: Find the recorded Taq Δ271 F667Y activity relative to 0.5% each NP-40 and Tween 20 belonging to "CCCCCCCC[N+](C)(C)CCCS(=O)(=O)[O-]" and report it.
stdout: − − (Activity 20-50%)

stdin: Quick check: Taq Δ271 F667Y activity relative to 0.5% each NP-40 and Tween 20 of CCCCCCCCO[C@@H]1O[C@H](CO)[C@@H](O)[C@H](O)[C@H]1O [Octyl Glucopyranoside, n-octyl-β-D-glucopyranoside] ?
stdout: − − (Activity 20-50%)

stdin: Look up Taq Δ271 F667Y activity relative to 0.5% each NP-40 and Tween 20: C[C@H](CCC(=O)[O-])[C@H]1CC[C@H]2[C@@H]3[C@H](O)C[C@@H]4C[C@H](O)CC[C@]4(C)[C@H]3C[C@H](O)[C@]12C.[Na+] [Sodium Cholate]
stdout: − − − (Activity < 20%)

---
stdin: Item "CCCCCCCCCC[N+](C)(C)CCCS(=O)(=O)[O-]" has what recorded Taq Δ271 F667Y activity relative to 0.5% each NP-40 and Tween 20?
stdout: − − (Activity 20-50%)
